# target entity: soluble recombinant human TLR4 (hTLR4) (Homo sapiens, UniProt O00206)
# Sequence (O00206 24-631 limits assumed): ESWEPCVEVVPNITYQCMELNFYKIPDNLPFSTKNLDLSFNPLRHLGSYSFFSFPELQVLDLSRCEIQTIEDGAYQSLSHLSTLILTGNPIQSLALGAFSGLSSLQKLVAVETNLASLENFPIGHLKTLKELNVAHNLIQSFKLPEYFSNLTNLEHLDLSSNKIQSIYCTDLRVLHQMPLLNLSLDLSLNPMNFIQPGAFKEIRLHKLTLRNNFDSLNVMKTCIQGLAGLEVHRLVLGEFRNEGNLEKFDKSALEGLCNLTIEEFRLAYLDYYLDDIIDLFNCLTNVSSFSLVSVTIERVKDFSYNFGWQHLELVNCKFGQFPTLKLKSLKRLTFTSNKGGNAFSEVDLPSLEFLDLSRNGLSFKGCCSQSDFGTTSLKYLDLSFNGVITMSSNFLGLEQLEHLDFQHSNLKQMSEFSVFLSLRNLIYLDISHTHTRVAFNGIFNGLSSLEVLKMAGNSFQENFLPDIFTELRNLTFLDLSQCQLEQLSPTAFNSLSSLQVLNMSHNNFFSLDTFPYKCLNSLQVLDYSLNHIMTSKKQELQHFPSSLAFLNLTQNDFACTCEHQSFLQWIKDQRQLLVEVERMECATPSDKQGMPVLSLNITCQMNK
# experiment summary: biochemical
parameter: Kd
Be sure to follow the number with its unit.

Please report the recorded Kd for [NH2][Pt]([NH2])([Cl])[Cl] [cisplatin] .
100 µM

* * *

# target entity: soluble recombinant mouse TLR4 (mTLR4) (Mus musculus)
# Sequence (Q9QUK6 26-638 limits assumed): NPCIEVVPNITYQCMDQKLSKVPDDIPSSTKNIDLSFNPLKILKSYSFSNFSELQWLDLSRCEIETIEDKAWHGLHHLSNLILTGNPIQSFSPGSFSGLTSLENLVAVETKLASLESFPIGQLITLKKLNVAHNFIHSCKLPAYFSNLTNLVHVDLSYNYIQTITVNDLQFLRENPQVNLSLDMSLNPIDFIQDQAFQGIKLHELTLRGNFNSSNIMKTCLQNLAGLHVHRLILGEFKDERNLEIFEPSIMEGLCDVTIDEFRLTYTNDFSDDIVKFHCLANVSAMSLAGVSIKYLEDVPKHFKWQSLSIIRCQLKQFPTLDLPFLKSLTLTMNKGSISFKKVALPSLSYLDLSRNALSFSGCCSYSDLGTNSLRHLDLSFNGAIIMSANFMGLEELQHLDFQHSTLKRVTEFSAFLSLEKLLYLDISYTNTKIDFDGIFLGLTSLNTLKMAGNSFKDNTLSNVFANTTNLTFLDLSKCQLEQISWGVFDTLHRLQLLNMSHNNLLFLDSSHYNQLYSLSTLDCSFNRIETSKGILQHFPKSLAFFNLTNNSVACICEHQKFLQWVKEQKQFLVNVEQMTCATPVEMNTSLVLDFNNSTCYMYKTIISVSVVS
# experiment summary: biochemical
parameter: Kd (µM)
Give just the numeric value; µM need not be written.

Return Kd measured with soluble recombinant mouse TLR4 (mTLR4) (Mus musculus) given this compound: [NH2][Pt]([NH2])([Cl])[Cl] [cisplatin]
134
